- Test system: ragweed (common ragweed, Ambrosia elatior)
- TEST_METHOD_NOTES: Test C pre-/postemergence greenhouse test, plant response rating 0-100;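 note: 0 is no effect and 100 is complete control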
- Type: in vivo
- ASSAY_CONDITIONS: Postemergence, 125 g ai/ha
Binary label based on Plant response rating (0 to 100), Ragweed with cut-off 10: below gives TRUE, not below gives FALSE.

Field: below-cutoff. Rule: recorded Plant response rating (0 to 100), Ragweed strictly less than 10. Subject: Clc1cc(Cl)cc(-c2n[nH]cc2C(=NNc2ccccc2Cl)c2ccccc2)c1 [Compound 66]
FALSE

Field: below-cutoff. Rule: recorded Plant response rating (0 to 100), Ragweed strictly less than 10. Subject: Fc1ccc(NN=C(c2ccccc2)c2c[nH]nc2-c2cc(Cl)cc(Cl)c2)cc1 [Compound 35]
FALSE

Field: below-cutoff. Rule: recorded Plant response rating (0 to 100), Ragweed strictly less than 10. Subject: O=C(c1ccccc1)c1cn(S(=O)(=O)C(F)(F)F)nc1-c1cc(Cl)cc(Cl)c1 [Compound 2]
FALSE

Field: below-cutoff. Rule: recorded Plant response rating (0 to 100), Ragweed strictly less than 10. Subject: CCOC(OCC)(c1cccs1)c1c[nH]nc1-c1cc(Cl)cc(Cl)c1 [Compound 27]
FALSE

Field: below-cutoff. Rule: recorded Plant response rating (0 to 100), Ragweed strictly less than 10. Subject: Cn1cc(C(=NN2CCCC2)c2ccccc2)c(-c2cc(Cl)c(Cl)c(Cl)c2)n1 [Compound 25]
TRUE

====

Documented Plant response rating (0 to 100), Foxtail, Giant across a set of compounds
- Tested on: giant foxtail (Setaria faberii)
- TEST_METHOD_NOTES: Test C pre-/postemergence greenhouse test, plant response rating 0-100
- Type: in vivo
- ASSAY_CONDITIONS: Postemergence, 62 g ai/ha
Could you respond with only the numeric value?

INSERT INTO assay_data (smiles_representation, system_tested, reading) VALUES
  ('CCOC(OCC)(c1cccs1)c1c[nH]nc1-c1cc(Cl)cc(Cl)c1', 'giant foxtail (Setaria faberii)', 0);

I would be grateful if you could share the reported Plant response rating (0 to 100), Foxtail, Giant for C=CCn1cc(C(=O)c2ccccc2)c(-c2cc(Cl)cc(Cl)c2)n1 .
5

I would be grateful if you could share the reported Plant response rating (0 to 100), Foxtail, Giant for ON=C(c1ccccc1)c1c[nH]nc1-c1cc(Cl)cc(Cl)c1 .
0

I would be grateful if you could share the reported Plant response rating (0 to 100), Foxtail, Giant for O=C(c1ccccc1)c1cn(S(=O)(=O)CCl)nc1-c1cc(Cl)cc(Cl)c1 .
0

====

Documented Plant response rating, Bermudagrass across a set of compounds
- System: bermudagrass (Cynodon dactylon)
- TEST_METHOD_NOTES: Test C postemergence greenhouse test, plant response rating 0-100
- Type: in vivo
- ASSAY_CONDITIONS: 250 g ai/ha, scale 0 to 100
Could you respond with only the numeric value?

INSERT INTO results (smiles_representation, measurement_name, reading) VALUES
  ('Cn1cc(C(=O)c2cccs2)c(-c2cc(Cl)cc(Cl)c2)n1', 'Plant response rating, Bermudagrass', 0);

I would be grateful if you could share the reported Plant response rating, Bermudagrass for C=CCn1cc(C(=O)c2ccccc2)c(-c2cc(Cl)cc(Cl)c2)n1 .
5

I would be grateful if you could share the reported Plant response rating, Bermudagrass for Cn1cc(C(=O)c2ccccc2)c(-c2cc(Br)cc(Br)c2)n1 .
5

I would be grateful if you could share the reported Plant response rating, Bermudagrass for Cn1cc(C(=O)c2ccccc2)c(-c2cc(Cl)cc(Cl)c2)n1 .
0

I would be grateful if you could share the reported Plant response rating, Bermudagrass for CCCn1cc(C(=O)c2ccccc2)c(-c2cc(Cl)cc(Cl)c2)n1 .
5

I would be grateful if you could share the reported Plant response rating, Bermudagrass for CCn1cc(C(=NN2CCCC2)c2ccccc2)c(-c2cc(Cl)cc(Cl)c2)n1 .
0

====

- System: waterhemp_RES2, (ALS & HPPD resistant common waterhemp, Amaranthus rudis)
- TEST_METHOD_NOTES: Test E postemergence greenhouse test, plant response rating 0-100
- Format: in vivo
- ASSAY_CONDITIONS: 500 g ai/ha, scale 0 to 100
Documented Plant response rating, Waterhemp_RES2 across a set of compounds
Could you respond with only the numeric value?

Use these answered entries as a reference point.
INSERT INTO measurements (smiles_representation, measurement_name, reading) VALUES
  ('CCn1cc(C(=O)c2cccs2)c(-c2cc(Cl)cc(Cl)c2)n1', 'Plant response rating, Waterhemp_RES2', 95),
  ('COCC(=O)n1cc(C(=O)c2ccccc2)c(-c2cc(Cl)cc(Cl)c2)n1', 'Plant response rating, Waterhemp_RES2', 100),
  ('O=C(c1ccccc1)c1cn(S(=O)(=O)CC(F)(F)F)nc1-c1cc(Cl)cc(Cl)c1', 'Plant response rating, Waterhemp_RES2', 95);

I would be grateful if you could share the reported Plant response rating, Waterhemp_RES2 for CCCn1cc(C(=O)c2ccccc2)c(-c2cc(Cl)cc(Cl)c2)n1 .
95

I would be grateful if you could share the reported Plant response rating, Waterhemp_RES2 for O=C(c1ccccc1)c1cn(CO)nc1-c1cc(Cl)cc(Cl)c1 .
98

====

- Tested on: waterhemp (common waterhemp, Amaranthus rudis)
- TEST_METHOD_NOTES: Test C pre-/postemergence greenhouse test, plant response rating 0-100
- Format: in vivo
- ASSAY_CONDITIONS: Preemergence, 125 g ai/ha
MEASUREMENT_NAME: Plant response rating, Waterhemp
Could you respond with only the numeric value?

Use these answered entries as a reference point.
INSERT INTO results (compound, reading) VALUES
  ('O=C(c1ccccc1)c1cn(S(=O)(=O)CC(F)(F)F)nc1-c1cc(Cl)cc(Cl)c1 [Compound 3]', 100),
  ('O=Cn1cc(C(=O)c2ccccc2)c(-c2cc(Cl)cc(Cl)c2)n1 [Compound 28]', 100);

I would be grateful if you could share the reported Plant response rating, Waterhemp for Cn1cc(C(=O)c2ccccc2)c(-c2cc(Cl)cc(Cl)c2)n1 [Compound 54] .
95

I would be grateful if you could share the reported Plant response rating, Waterhemp for CCOC(OCC)(c1cccs1)c1c[nH]nc1-c1cc(Cl)cc(Cl)c1 [Compound 27] .
100

====

Documented Plant response rating, Kochia across a set of compounds
- System: kochia (Kochia scoparia)
- TEST_METHOD_NOTES: Test C postemergence greenhouse test, plant response rating 0-100
- Type: in vivo
- ASSAY_CONDITIONS: 250 g ai/ha, scale 0 to 100
Could you respond with only the numeric value?

INSERT INTO assay_data (compound, measurement_name, reading) VALUES
  ('C=CCn1cc(C(=O)c2ccccc2)c(-c2cc(Cl)cc(Cl)c2)n1 [Compound 60]', 'Plant response rating, Kochia', 55);

I would be grateful if you could share the reported Plant response rating, Kochia for O=C(c1ccccc1)c1cn(S(=O)(=O)C(F)(F)F)nc1-c1cc(Cl)cc(Cl)c1 [Compound 2] .
90

I would be grateful if you could share the reported Plant response rating, Kochia for Fc1ccccc1NN=C(c1ccccc1)c1c[nH]nc1-c1cc(Cl)cc(Cl)c1 [Compound 57] .
80

I would be grateful if you could share the reported Plant response rating, Kochia for CCOC(OCC)(c1cccs1)c1c[nH]nc1-c1cc(Cl)cc(Cl)c1 [Compound 27] .
90

I would be grateful if you could share the reported Plant response rating, Kochia for O=C(c1ccccc1)c1cn(S(=O)(=O)CCl)nc1-c1cc(Cl)cc(Cl)c1 [Compound 1] .
90

I would be grateful if you could share the reported Plant response rating, Kochia for ON=C(c1ccccc1)c1c[nH]nc1-c1cc(Cl)cc(Cl)c1 [Compound 50] .
65

====

- Test system: chickweed (common chickweed, Stellaria media)
- TEST_METHOD_NOTES: Test C postemergence greenhouse test, plant response rating 0-100
- Format: in vivo
- ASSAY_CONDITIONS: 125 g ai/ha
Documented Plant response rating (0 to 100), Chickweed across a set of compounds
Could you respond with only the numeric value?

Use these answered entries as a reference point.
INSERT INTO assay_data (compound, reading) VALUES
  ('O=C(c1ccccc1)c1cn(S(=O)(=O)CC(F)(F)F)nc1-c1cc(Cl)cc(Cl)c1 [Compound 3]', 100),
  ('O=C(c1cncc(F)c1)c1c[nH]nc1-c1cc(Cl)cc(Cl)c1 [Compound 19]', 98),
  ('Fc1ccccc1NN=C(c1ccccc1)c1c[nH]nc1-c1cc(Cl)cc(Cl)c1 [Compound 57]', 100),
  ('Fc1ccc(NN=C(c2ccccc2)c2c[nH]nc2-c2cc(Cl)cc(Cl)c2)cc1 [Compound 35]', 100),
  ('CCn1cc(C(=NN2CCCC2)c2ccccc2)c(-c2cc(Cl)cc(Cl)c2)n1 [Compound 37]', 70);

Form: Entry = CCn1cc(C(=O)c2ccccc2)c(-c2cc(Br)cc(Br)c2)n1 [Compound 38] | System = chickweed (common chickweed, Stellaria media) | Plant response rating (0 to 100), Chickweed = ____
60

Form: Entry = O=C(c1ccccc1)c1cn(S(=O)(=O)C(F)(F)F)nc1-c1cc(Cl)cc(Cl)c1 [Compound 2] | System = chickweed (common chickweed, Stellaria media) | Plant response rating (0 to 100), Chickweed = ____
100

Form: Entry = C=CCn1cc(C(=O)c2ccccc2)c(-c2cc(Cl)cc(Cl)c2)n1 [Compound 60] | System = chickweed (common chickweed, Stellaria media) | Plant response rating (0 to 100), Chickweed = ____
100

Form: Entry = Cn1cc(C(=O)c2cccs2)c(-c2cc(Cl)cc(Cl)c2)n1 [Compound 17] | System = chickweed (common chickweed, Stellaria media) | Plant response rating (0 to 100), Chickweed = ____
65
